Values from PubChem BioAssay (NCI)

Tested on: UACC-257 melanoma
MEASUREMENT_PROTOCOL: NCI tumour cell line growth inhibition, 48 h
OUTCOME_MEASURE: TGI

Lab note: measured TGI of c1cncc(CNc2ccccc2-c2nnc(Nc3ccc4c(c3)OCO4)o2)c1 was 60.4 µM

Form field TGI, entry C#CCNC(=O)CCC(N)C(=O)O (configuration not stated) : > 100 µM

Please fill in: TGI reported for CCCS(=O)(=O)O = > 100 µM

TGI reported for this compound C=C1C(=O)OC2/C=C(\C)CC/C=C(/C)CC(OC(=O)/C(=C/CO)CO)C12 (configuration not stated) : 36.3 µM

// recorded TGI for CCCCC1Cc2cc(O)ccc2-c2n1c1cc(O)ccc1[n+]2C (configuration not stated) (tested in a mixture with another compound) : 80 µM

Sample N=C(N)n1ncc(Cl)c(Cl)c1=O ; TGI observed: 4.66 µM

The compound listed as O=C1C2=C(C(=O)c3c(O)ccc(O)c31)N(c1ccc(N3CCOCC3)nc1)Cc1ccccc1O2 has a reported TGI of 1.52 µM

The compound listed as COC(=O)/C(C#N)=C\N1CCN(C(=O)c2ccco2)C1=S has a reported TGI of 22.5 µM

// recorded TGI for O=c1oc2ncccc2n1Cc1ccc([N+](=O)[O-])cc1 : > 100 µM

Input CCCCCCCCCCCCCCCCOC(=O)C(C(=O)OCCCCCCCCCCCCCCCC)[N+](C)(C)CCOC(C)=O . Output TGI: 35 µM

The measured TGI associated with NC(CCCCCP(=O)(O)O)C(=O)O (configuration not stated) reads > 100 µM

TGI reported for this compound CN(CCCNC(=O)c1cn(C)c2c1ccc1cc(Cl)ccc12)CCCNC(=O)c1cn(C)c2c1ccc1cc(Cl)ccc12 : > 100 µM

Measured TGI of COc1ccc2c(c1)C(=O)c1c-2n(CCCN=[N+]=[N-])c(=O)c2ccccc12 : > 100 µM

Record summary for CCOc1ccccc1NC(=O)C(=O)CC(=O)C1=C(C)Nc2ccccc2S1 : reported TGI = > 100 µM

For this compound ( NS(=O)(=O)c1nnc(NC(=O)CCC(=O)O)s1 ), measured TGI is > 100 µM

Sample CC(=O)NNc1nc(C)c(C(=O)NNC(=O)C(=O)Nc2ccc(C)c(C)c2)s1 ; TGI observed: > 100 µM

Entry Nc1ccc2c(c1)C(=O)c1ccc(F)cc1-2 ; TGI = > 100 µM

Query CCN(CC)CCN1C(=O)c2cccc3c(-c4ccc5c(c4)ncn5C4CCCCC4)ccc(c23)C1=O yields TGI of 3.74 µM

Documented TGI of C=CCN1C(=O)/C(=c2\sc3n(c2=O)C2C(NN=3)N(CC)C(=O)N2CC)c2ccccc21 (configuration not stated) : > 100 µM

// field: TGI; key: CC(=O)CC(=O)CCCC(=O)Nc1ccc(Cl)cc1C ; value = > 100 µM

Per the record, C/C(CN1C(=O)c2ccccc2C1=O)=N\NS(=O)(=O)c1ccccc1 has TGI of > 100 µM

// TGI value for CN1CN(c2ccccc2)C2(CCNCC2)C1=O : > 100 µM
